The measured values listed here are drawn from PubChem BioAssay.

Target: Streptavidin (Streptomyces avidinii) (UniProt P22629)
Sequence (P22629 whole entry, looked up): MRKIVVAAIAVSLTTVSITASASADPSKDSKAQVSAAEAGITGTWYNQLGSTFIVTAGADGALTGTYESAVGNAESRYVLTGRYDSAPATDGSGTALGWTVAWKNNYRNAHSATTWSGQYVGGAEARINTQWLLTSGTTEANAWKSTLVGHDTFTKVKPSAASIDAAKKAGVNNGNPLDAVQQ
Experiment: compounds binding control protein streptavidin – biophysical, small-molecule microarray, 635/667 nm fluorescence, artefact control for SMM compound annotation, primary screen (AID 1147);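 note: signal reflects streptavidin binding to arrayed compounds as a control protein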
Settings: higher = more signal
Measurement name: composite z-score

* COC(=O)[C@@]1(Cc2ccc(OC)cc2)[C@H]2c3cc(C(=O)N4CCCC4)n(CCc4ccccn4)c3C[C@H]2CN1C(=O)c1ccccc1 | 0.698
* O=C1OCC=C[C@H]2OC34C=CCN(c5ccc(Cl)cc5)C(=O)[C@H]3N(CCCO)C(=O)[C@@H]4[C@@H]12 (some centres undefined) | -1.47
* O=C(NCC(O)CO)[C@]1(CCS(=O)(=O)c2ccccc2)N=C(c2ccc(OCCCO)cc2)O[C@@H]1c1ccccc1 (some centres undefined) | 1.03
* CN(C)CCCC[C@@H]1NC(=O)[C@@H]2C[C@H](C(=O)NCCCCCCN)[C@H](c3ccc(O)cc3)N2C1=O | 1.19
* CC1CC/C=C\[C@H]2OC34C=CCN(Cn5nnc6ccccc65)C(=O)[C@H]3N(CCCO)C(=O)[C@@H]4C2C(=O)O1 (some centres undefined) | -0.958
* C=CCC(OC(C)=O)[C@@H]1[C@@H](N(Cc2ccc(-c3cccc(C(F)(F)F)c3)o2)C(=O)Cc2ccc(OC)cc2)c2cc(OCCCO)ccc2N1C(=O)Cc1ccc(OC)cc1 (some centres undefined) | -1.01
* CC(C)(C)OC(=O)CC[C@@]1(C(=O)N2CCOCC2)N=C(c2ccc(OCCCO)cc2)O[C@@H]1c1ccccc1N=[N+]=[N-] | 1.93
* COc1ccc([Si](C)(C)[C@@H]2[C@@H](CCn3cc([C@H](O)c4ccccc4)nn3)O[C@]3(C(=O)N(C)c4ccccc43)[C@H]2C)cc1 | -0.0794
* C=CCNC(=O)[C@H]1[C@@H]2C(=O)O[C@@H](c3ccccc3)[C@@H](c3ccccc3)N2[C@@H](c2ccc(OCCO)cc2)[C@]12C(=O)N(C(=O)OCCOC)c1ccc(C#CC3(O)CCCCCC3)cc12 | 0.37
* COCCOC(=O)N1C(=O)[C@@]2(c3cc(C#CC4(O)CCCCCC4)ccc31)[C@H](c1ccc(O)cc1)N1[C@H](c3ccccc3)[C@H](c3ccccc3)OC(=O)[C@H]1[C@@H]2C(=O)N1CCc2cc(OC)c(OC)cc2C1 | -1.33
* CCOC(=O)C1=CC[C@@H](c2cccc(Cl)c2)N(S(=O)(=O)c2ccc(C)cc2)[C@H]1c1ccc(C#N)cc1 | 1.15
* C=C(/C(=C/C[C@@H](OC(C)=O)c1ccc(CO)o1)c1cnc2ccccc2c1)C(C)C | 0.17
* O=C1c2ccccc2[C@@]2(Cc3ccccc3N(Cc3ccccc3)C2=O)[C@H](c2ccc(CO)cc2)N1Cc1ccccc1C(F)(F)F | -0.896
* COCC1=C([C@H](O)CCc2ccccc2)[C@H](CO)[C@@H]2C(=O)N(Cc3ccccc3)C(=O)[C@@H]2C1 | -0.0218
* [N-]=[N+]=NCc1ccccc1[C@@H]1OC(c2ccc(OCCCO)cc2)=N[C@]1(Cc1ccccc1)C(=O)O | 0.728
* COCCOC(=O)N1C(=O)[C@@]2(c3cc(C#CC4=CCCCC4)ccc31)[C@H](C(=O)N1CCN(c3ncccn3)CC1)[C@H]1C(=O)O[C@H](c3ccccc3)[C@H](c3ccccc3)N1[C@@H]2c1ccc(OCCO)cc1 | 0.832
* C=C[C@H](OC)[C@@H](OC(=O)Nc1ccc(SC)cc1)c1ccc(OCCO)cc1 | -0.414
* CN(C)CCCC[C@@H]1NC(=O)[C@H]2C[C@@H](C(=O)NCCCCCNC(=O)CS)[C@@H](c3ccc(O)cc3)N2C1=O | -0.175
* C=C(COC)C(=O)CC[C@@H](OC(=O)c1ccccc1-c1ccccc1C(=O)O)c1ccc(CO)o1 | -0.517
* CC(C)CNC(=O)[C@@]1(C)c2ccccc2C(=O)N(C(C)C)[C@H]1c1ccc(CO)cc1 | -1.36
* O=c1cccc(-c2ccccc2)o1 | -0.386
* Cc1ccc(S[C@]2(C(=O)NCC(F)(F)F)CC(=O)N(C3Cc4ccccc4C3)[C@@H]2c2ccc(CO)cc2I)cc1 | -0.457
* COC(=O)[C@@]1(Cc2ccc(F)cc2)[C@H]2c3cc(C(=O)N4CCCC4)n(CCc4ccc(OC)c(Br)c4)c3C[C@H]2CN1C(=O)c1ccccc1 | 2.46
* Cc1c(NC(=O)/C(C#N)=C/C=C/c2ccccc2)c(=O)n(-c2ccccc2)n1C | 0.783
* O=C1[C@H]2C=C(Br)[C@H](C[C@@H]2OCCOCCO)[C@@]12CO2 | 0.138
* O=C1OCCC/C=C\[C@H]2OC34C=CCN(CCN5CCOCC5)C(=O)[C@H]3N(CCO)C(=O)[C@@H]4C12 (some centres undefined) | -0.671
* [N-]=[N+]=NCc1ccccc1C[C@]1(C(=O)NCC(O)CO)COC(c2ccc(OCCCO)cc2)=N1 (some centres undefined) | 1.43
* COc1ccc([Si](C)(C)[C@@H]2[C@@H](CCO)O[C@]3(C(=O)N(Cc4cccc(N5CCCCC5=O)c4)c4ccccc43)[C@H]2C)cc1 | -0.276
* COc1ccc([Si](C)(C)[C@@H]2[C@@H](CC(=O)N3Cc4ccccc4C[C@H]3CO)O[C@]3(C(=O)N(Cc4cccc(N5C(=O)COc6ccccc65)c4)c4ccccc43)[C@H]2C)cc1 | 0.535
